Each record here notes measured log10 of IC50.
TGT: Human SGLT2 (hSGLT2) (Homo sapiens)
Sequence (P31639 whole entry): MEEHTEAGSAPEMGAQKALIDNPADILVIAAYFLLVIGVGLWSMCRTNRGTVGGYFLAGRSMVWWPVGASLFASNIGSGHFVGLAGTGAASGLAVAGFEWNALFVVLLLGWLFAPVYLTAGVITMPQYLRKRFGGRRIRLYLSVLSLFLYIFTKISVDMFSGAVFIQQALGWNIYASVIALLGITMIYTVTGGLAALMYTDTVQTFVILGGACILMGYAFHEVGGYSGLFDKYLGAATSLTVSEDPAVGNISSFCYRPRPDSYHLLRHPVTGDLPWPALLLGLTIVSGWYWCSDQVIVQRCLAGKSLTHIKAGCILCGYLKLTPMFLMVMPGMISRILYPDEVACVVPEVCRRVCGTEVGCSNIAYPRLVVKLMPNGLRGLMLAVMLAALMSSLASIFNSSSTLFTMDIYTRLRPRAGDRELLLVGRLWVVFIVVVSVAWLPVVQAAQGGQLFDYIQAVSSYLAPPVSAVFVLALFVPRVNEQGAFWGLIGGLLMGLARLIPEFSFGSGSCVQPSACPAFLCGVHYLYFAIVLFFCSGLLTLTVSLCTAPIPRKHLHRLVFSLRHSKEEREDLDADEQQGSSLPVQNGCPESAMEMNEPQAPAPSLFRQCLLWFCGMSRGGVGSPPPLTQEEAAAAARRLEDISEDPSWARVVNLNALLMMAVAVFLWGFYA
MEASUREMENT_DESCRIPTION: Sodium-dependent glucose transport (14C-AMG uptake) assay in CHO cells stably expressing hSGLT2
SETUP_CONDITIONS: CHO cells expressing hSGLT2, 14C-AMG uptake, 37° C. for 2 h; single determinations; read-out: hSGLT2 Inhibitory Activity IC50
Form field - Quantity: IC50; Unit: nM; Scale: log10

Answered cases to consult:
{"columns": ["STRUCTURE_SMILES", "RECORDED_MEASUREMENT"],
 "data": [
  ["CCOc1cc(Cl)c(Cc2ncc(-c3ccoc3)s2)cc1[C@@H]1O[C@H](CO)[C@@H](O)[C@H](O)[C@H]1O", 0.64],
  ["OC[C@H]1O[C@@H](c2ccc(Cl)c(Cc3ncc(-c4cccs4)s3)c2)[C@H](O)[C@@H](O)[C@@H]1O", 0.51]
]}

**Q:** Looking for the measured log10 of IC50 of OCCOC[C@H]1O[C@@H](c2ccc(Cl)c(Cc3ncc(-c4ccco4)s3)c2)[C@H](O)[C@@H](O)[C@@H]1O , can you help?
**A:** 1.49

**Q:** Looking for the measured log10 of IC50 of OC[C@H]1O[C@@H](c2ccc(Cl)c(Cc3cnc(-c4cscn4)s3)c2)[C@H](O)[C@@H](O)[C@@H]1O , can you help?
**A:** 1.25

**Q:** Looking for the measured log10 of IC50 of OC[C@H]1O[C@@H](c2ccc(Cl)c(Cc3cnc(-c4cc5ccccc5o4)s3)c2)[C@H](O)[C@@H](O)[C@@H]1O , can you help?
**A:** 1.88

**Q:** Looking for the measured log10 of IC50 of OC[C@H]1O[C@@H](c2cc(Cc3ncc(-c4ccco4)s3)c(Cl)cc2Cl)[C@H](O)[C@@H](O)[C@@H]1O , can you help?
**A:** 0.73

**Q:** Looking for the measured log10 of IC50 of COc1cc(Cl)c(Cc2ncc(-c3ccco3)s2)cc1[C@@H]1O[C@H](CO)[C@@H](O)[C@H](O)[C@H]1O , can you help?
**A:** 0.35

**Q:** Looking for the measured log10 of IC50 of C=CCc1cnc(Cc2cc([C@@H]3O[C@H](CO)[C@@H](O)[C@H](O)[C@H]3O)ccc2Cl)s1 , can you help?
**A:** 1.06

**Q:** Looking for the measured log10 of IC50 of C=CCOc1cc(Cl)c(Cc2ncc(-c3ccco3)s2)cc1[C@@H]1O[C@H](CO)[C@@H](O)[C@H](O)[C@H]1O , can you help?
**A:** 0.09

**Q:** Looking for the measured log10 of IC50 of CCCCCc1cnc(Cc2cn([C@@H]3O[C@H](CO)[C@@H](O)[C@H](O)[C@H]3O)c3ccccc23)s1 , can you help?
**A:** 2.32

**Q:** Looking for the measured log10 of IC50 of OC[C@H]1O[C@@H](c2ccc(Cl)c(Cc3ncc(C4CCCC4)s3)c2)[C@H](O)[C@@H](O)[C@@H]1O , can you help?
**A:** 0.99

**Q:** Looking for the measured log10 of IC50 of C=CCOc1cc(Cl)c(Cc2ncc(-c3cccs3)s2)cc1[C@@H]1O[C@H](CO)[C@@H](O)[C@H](O)[C@H]1O , can you help?
**A:** 0.23

**Q:** Looking for the measured log10 of IC50 of CCCSc1ncc(Cc2cc([C@@H]3O[C@H](CO)[C@@H](O)[C@H](O)[C@H]3O)ccc2Cl)s1 , can you help?
**A:** 1.19

**Q:** Looking for the measured log10 of IC50 of OC[C@H]1O[C@@H](c2ccc(F)c(Cc3ncc(-c4cccs4)s3)c2)[C@H](O)[C@@H](O)[C@@H]1O , can you help?
**A:** 1.40

Source: patent US8586550B2
